test: Blood plasma levels in human patients; type: in vivo; conditions: plasma, oral, 5 mg/kg bw, monepantel as Zolvix 5 mg/kg bw daily, 4 h, average of patients, read-out: Blood plasma level of monepantel, Average
measure: concentration at 4 h (ng/mL)
Only the number, expressed in ng/mL, is required.

**Q:** Consider the compound shown here: C[C@](C#N)(COc1cc(C#N)ccc1C(F)(F)F)NC(=O)c1ccc(SC(F)(F)F)cc1 [MPL] What is its recorded concentration at 4 h?
**A:** 167
